Biological target: T1, cynomolgus monkey CD73 protein (cynomolgus monkey, UniProt A0A2K5V5U7 27-547)
T1 construct: construct not described
T1 sequence: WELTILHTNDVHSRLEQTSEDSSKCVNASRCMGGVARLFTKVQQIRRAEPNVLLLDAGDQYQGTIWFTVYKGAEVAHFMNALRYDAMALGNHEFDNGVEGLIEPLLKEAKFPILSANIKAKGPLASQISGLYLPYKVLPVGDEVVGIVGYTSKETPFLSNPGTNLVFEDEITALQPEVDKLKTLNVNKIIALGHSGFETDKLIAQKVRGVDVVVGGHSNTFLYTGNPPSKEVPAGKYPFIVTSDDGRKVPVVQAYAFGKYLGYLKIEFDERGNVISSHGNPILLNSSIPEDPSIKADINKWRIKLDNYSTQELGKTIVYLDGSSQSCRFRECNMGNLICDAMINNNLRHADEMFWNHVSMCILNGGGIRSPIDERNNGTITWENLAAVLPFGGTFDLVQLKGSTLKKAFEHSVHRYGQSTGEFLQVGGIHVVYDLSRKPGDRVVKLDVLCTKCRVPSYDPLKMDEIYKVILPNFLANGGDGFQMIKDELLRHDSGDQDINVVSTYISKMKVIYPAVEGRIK
Assay: BLI (Fortebio), cynomolgus CD73 on HIS1K biosensors, antibody as analyte
We begin with a simple list: items and their reported pKd.
// pKd: -log10(molar conc.)

Look over these answered cases.
Hab7C3C2.5 (antibody, human IgG1, kappa, L234A L235A, V domains shown, Humanized 7C3C2; also called Hab7C3C.5) VH: QVQLVQSGAEVKKPGASVKVSCKASGYTFTSYDINWVRQATGQGLEWIGWIYPRDGFTKYNEKFKGRVTLTVNTSISTAYMELSSLRSEDTAVYYCARKEGYRGDWYFDVWGQGTTVTVSS VL: DIQMTQSPSSLSASVGDRVTITCRASGNVHNYLAWYQQKPGKAPKLLLYNAKTLASGVPSRFSGSGSGTDYTLTISSLQPEDFATYYCQHFWSTPWTFGGGTELEIKR
9.14
Hab7C3C2.9 (antibody, human IgG1, kappa, L234A L235A, V domains shown, Humanized 7C3C2; also called Huab7C3C.9) VH: QVQLVQSGAEVKKPGASVKVSCKASGYTFTSYDINWVRQATGQGLEWMGWIYPRDGFTKYAQKFQGRVTITVNTSISTAYMELSSLRSEDTAVYYCARKEGYRGDWYFDVWGQGTTVTVSS VL: DIQMTQSPSSLSASVGDRVTITCRASGNVHNYLAWYQQKPGKAPKLLLYNAKTLASGVPSRFSGSGSGTDYTLTISSLQPEDFATYYCQHFWSTPWTFGGGTELEIKR
9.07
Hab1F2F9.12 (antibody, human IgG1, kappa, L234A L235A, V domains shown, Humanized 1F2F9; also called Huab1F2F9.12) VH: QVQLVQSGAEVKKPGASVKVSCKASGYTFTSYWMHWVRQAPGQRLEWMGNINPSNGGTKYNEKFQGRVTITVDTSASTAYMELSSLRSEDTAVYYCARRDYGSPSYWGQGTTVTVSS VL: DIQMTQSPSSLSASVGDRVTITCKASQDINSYLTWFQQKPGKAPKSLIYRTNILLDGVPSRFSGSGSGTDYTLTISSLQPEDFATYYCLQYHEFPVTFGGGTKLEIKR
9.17

Shifting focus to the binder that follows.
// returns reported pKd for input Hab1F2F9.15 (antibody, human IgG1, kappa, L234A L235A, V domains shown, Humanized 1F2F9; also called Huab1F2F9.15; HuablF2F9.15) VH: QVQLVQSGAEVKKPGASVKVSCKASGYTFTSYWMHWVRQAPGQRLEWMGNINPSNGGTKYSQKFQGRVTITVDTSASTAYMELSSLRSEDTAVYYCARRDYGSPSYWGQGTTVTVSS VL: DIQMTQSPSSLSASVGDRVTITCKASQDINSYLTWFQQKPGKAPKSLIYRTNILLDGVPSRFSGSGSGTDYTLTISSLQPEDFATYYCLQYHEFPVTFGGGTKLEIKR
9.09
